Source listed as patent US6855710B2.

Measurement Type: melting point

Chemical Structure	Measurement Type	Reported
COC(=O)c1ccc(/C(Nc2ccc(CN3CCCCC3)cc2)=C2/C(=O)Nc3ccc([N+](=O)[O-])cc32)cc1	melting point	178 to 183 °C
O=C(O)Cc1cccc(N/C(=C2\C(=O)Nc3ccccc32)c2ccccc2)c1	melting point	268 to 270 °C
O=C1Nc2ccc([N+](=O)[O-])cc2/C1=C(/Nc1ccc(CCNCCO)cc1)c1ccccc1	melting point	236 to 238 °C
C[C@H](N)c1ccc(N/C(=C2\C(=O)Nc3ccc([N+](=O)[O-])cc32)c2ccccc2)cc1.Cl	melting point	230 to 235 °C
CS(=O)(=O)N(CC(=O)O)c1ccc(N/C(=C2\C(=O)Nc3ccc([N+](=O)[O-])cc32)c2ccccc2)cc1	melting point	180 to 183 °C
NC(=O)c1ccc(N/C(=C2\C(=O)Nc3ccccc32)c2ccccc2)cc1	melting point	321 to 323 °C
O=C1Nc2ccc([N+](=O)[O-])cc2/C1=C(/Nc1ccc(CCN2CCC(C(=O)O)CC2)cc1)c1ccccc1	melting point	287 to 288 °C
COCCNCc1ccc(N/C(=C2\C(=O)Nc3ccc([N+](=O)[O-])cc32)c2ccccc2)cc1	melting point	184 to 185 °C
O=C1Nc2ccccc2/C1=C(/Nc1ccc(C(=O)N2CCCCC2)cc1)c1ccccc1	melting point	212 to 214 °C
CCCCNCc1ccc(N/C(=C2\C(=O)Nc3ccc([N+](=O)[O-])cc32)c2ccccc2)cc1	melting point	183 °C
CC(C)CN(Cc1ccc(N/C(=C2\C(=O)Nc3ccc([N+](=O)[O-])cc32)c2ccccc2)cc1)CC(C)C	melting point	204 to 207 °C
O=C1Nc2ccc([N+](=O)[O-])cc2/C1=C(/Nc1ccc(CN2CCS(=O)(=O)CC2)cc1)c1ccccc1	melting point	328 to 329 °C (dec.)
CN(C)C(=O)CN(C)S(=O)(=O)c1ccc(N/C(=C2\C(=O)Nc3ccc([N+](=O)[O-])cc32)c2ccccc2)cc1	melting point	277 to 278 °C
CCS(=O)(=O)N(CCCN(C)C)c1ccc(N/C(=C2\C(=O)Nc3ccccc32)c2ccccc2)cc1	melting point	194 °C
O=C(O)Cc1ccc(N/C(=C2\C(=O)Nc3ccccc32)c2ccccc2)cc1	melting point	214 to 216 °C
